B1: Hairpin Ribozyme (parent)
chain: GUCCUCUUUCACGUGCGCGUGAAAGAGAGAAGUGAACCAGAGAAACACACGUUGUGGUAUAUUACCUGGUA

variants of: B1; assay: self-cleavage, relative activity (ratio to wild type); higher = more cleavage; co-transcriptional
Documented self-cleavage across a set of variants

[
  {
    "residue.codes": "GUCCUCUUUCACGGGCGCGUGAAACAGAGAAGUGAACCAGAGAAACACACGUUGUGGUAUAUUACCUGGUA [U14G G25C]",
    "self-cleavage": 0.312
  },
  {
    "residue.codes": "GUCCUCUUUCACGUGCGCGUGAAAGAGAGAUGUGAAGCAGAGAAACACACGUUGUGGUAUAUUACCUGGUA [A31U C37G]",
    "self-cleavage": 0.237
  },
  {
    "residue.codes": "GUCCUCUUUCACGUGCGCGUGAAAGAGAGAAGUGGACCAGAGAAACACACGUUGUGGUAGAUUACCUGGUA [A35G U60G]",
    "self-cleavage": 0.443
  },
  {
    "residue.codes": "GUCCUCUUUCACGUGCGCGUGAAAGAGAGAAGUGAACCAUAGAAACACACGUUGUAGUAUAUUACCUGGUA [G40U G56A]",
    "self-cleavage": 0.174
  }
]

Given GUCCUCUUUCACGUGCGCGUGAAAGAGAGAAGUGAACCAGACAAACACACGUUGUGGUACAUUACCUGGUA [G42C U60C] , state its recorded self-cleavage.
0.419

Entry to check: GUCCUCUGUCACGUUCGCGUGAAAGAGAGAAGUGAACCAGAGAAACACACGUUGUGGUAUAUUACCUGGUA [U8G G15U]
0.656

Entry to check: GUCCUCUUUCACGUGCGCGGGAAAGAGAGAAGUGAAGCAGAGAAACACACGUUGUGGUAUAUUACCUGGUA [U20G C37G]
0.395

Entry to check: GUCCUCGUUCACGUGCGCGCGAAAGAGAGAAGUGAACCAGAGAAACACACGUUGUGGUAUAUUACCUGGUA [U7G U20C]
0.798

Entry to check: GUCCUCUUUCGCGUGCGCGUGAAAGAGAGAAGUGAACCAGAGAAACACACGUUGUCGUAUAUUACCUGGUA [A11G G56C]
0.128

Entry to check: GUCCUCUUUCAGGUGCGCGUGAAAGAGAGAAGUGAAACAGAGAAACACACGUUGUGGUAUAUUACCUGGUA [C12G C37A]
0.159

Attribution: the RNAGym collection of RNA variant scans (doi:10.7554/elife.80360)
